# log10(koff) per entry
Biological target: T1, recombinant human IL-23R/Fc chimera (R&D Systems) (human, UniProt Q5VWK5 24-355)
T1 construct: Bought; also called rhIL23RFc
T1 sequence (looked up): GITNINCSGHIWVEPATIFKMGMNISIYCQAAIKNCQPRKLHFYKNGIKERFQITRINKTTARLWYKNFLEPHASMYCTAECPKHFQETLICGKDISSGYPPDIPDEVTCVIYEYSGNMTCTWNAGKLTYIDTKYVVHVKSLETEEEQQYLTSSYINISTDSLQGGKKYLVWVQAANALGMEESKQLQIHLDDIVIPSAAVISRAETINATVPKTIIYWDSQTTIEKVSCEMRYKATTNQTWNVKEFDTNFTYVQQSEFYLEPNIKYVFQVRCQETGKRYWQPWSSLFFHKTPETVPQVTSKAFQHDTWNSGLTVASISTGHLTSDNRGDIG
Experiment: SPR
Units before log transform: s⁻¹; reported quantity: koff; transform: log10.

>  <binder>
001-89.C3C monomeric CTLD (designed binder, C-terminal tag not specified) ALQTVCLKGTKVHMKCFLAFTQTKTFHEASEDCISRGGTLSTPQTGSENDALYEYLRQSVGNEAEIWLGLNANRRRTMWVDMTGARIAYKNWETEITAQPDGGMGVWGENCAVLSGAANGKWFDKRCRDQLPYICQFGIV

>  <endpoint>
log10(koff)

>  <assay-result>
-1.80

$$$$

Note: attention shifts to another entry.
Q: Consider the binder shown here: 105-08-1A4 ATRIMER complex (designed binder) EPPTQKPKKIVNAKKDVVNTKMFEELKSRLDTLAQEVALLKEQQALQTVCLKGTKVHMKCFLAFTQTKTFHEASEDCISRGGTLSTPQTGSENDALYEYLRQSVGNEAEIWLGLNGSAVTNTWVDMTGARIAYKNWETEITAQPDGGFGYFGENCAVLSGAANGKWFDKRCRDQLPYICQFGIV What is its recorded log10(koff)?
Ans: -3.51
